Each record here notes measured EC50 (nM), KG-1 Assay (IFNγ).
- testedTarget: T1, human IL-18BP (interleukin-18 binding protein, isoform A) (human, UniProt O95998 31-194)
- T1 sequence: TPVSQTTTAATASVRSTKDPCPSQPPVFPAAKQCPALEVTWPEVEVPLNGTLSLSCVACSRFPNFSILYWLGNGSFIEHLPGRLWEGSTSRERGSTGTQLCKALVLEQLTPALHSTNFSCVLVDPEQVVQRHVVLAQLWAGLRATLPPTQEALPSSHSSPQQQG
- experiment: cell-based or functional assay
measureName: EC50 (nM), KG-1 Assay (IFNγ)

1) SA35a (antibody, human IgG1, V domains shown, murine variable regions on human IgG1 kappa constant regions) VH: QVQLQQSGAELVRPGVSVKISCKGSGYTFTDYPMHWVKQSHAKSLEWIGVISTYYGDASYNQKFKGKATMTVDKSSSTAYMELARLTSEDSAIYYCARWRGSFDYWGQGTTLTVSS VL: ENVLTQSPAIMSASPGEKVTMTCRASSSVSSSYLHWYQQKSGASPKLWIYSTSNLASGVPARFSGSGSGTSYSLTISSVEAEDAATYYCQQYSGYHTFGGGTKLEIK: 103
2) SA04a (antibody, human IgG1, V domains shown, murine variable regions on human IgG1 kappa constant regions) VH: QIQFVQSGPEVKTPGETVKISCKASVYTFTEYPMHWLKQAPGEDFEWMGWIHTYSGEPTYADDFKGRFAFSLETSASTAYLQINNLKTEDTATYFCARGRYYGALDYWGQGTALT VL: DIQMTQTPSSLSASLGDRVTISCRASQDISNYLNWYQQKPDGTVKLLIYYTSRLHSGVPSRFSGSGSGTDYSLTISNLEQEDVATYFCQHGNTLPRTFGGGTKLEIK: 2.6
3) SA34a (antibody, human IgG1, V domains shown, murine variable regions on human IgG1 kappa constant regions) VH: QVQLQQSGAELARPGASVKLSCKASGYTFTDYYINWVKQRTGQGLEWIGEIYPGSGNTYYNEKFKGKATLTADKSSSTAYMQLSSLTSEDSAVYFCARGYYGRFAYWGQGTLVTVSA VL: DIVMTQAAFSNPVTLGTSASISCRSSKSLLHSNGITYLYWYLQKPGQSPQLLIYQMSNLASGVPDRFSSSGSGTDFTLRISRVEAEDVGVYYCDQNLELPFTFGSGTKLEIK: 51
4) SA301a (antibody, human IgG1, V domains shown, humanized; human IgG1 (suffix a), kappa; also called humanized SA44a) VH: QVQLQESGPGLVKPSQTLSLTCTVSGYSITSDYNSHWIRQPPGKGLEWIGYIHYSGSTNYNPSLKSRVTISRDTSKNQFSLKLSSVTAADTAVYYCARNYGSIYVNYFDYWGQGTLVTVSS VL: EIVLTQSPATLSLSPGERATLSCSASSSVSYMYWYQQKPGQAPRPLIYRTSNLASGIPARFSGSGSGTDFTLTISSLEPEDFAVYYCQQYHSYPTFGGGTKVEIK: 1.3
